# testSummary: inhibitors of GR-EGFP nuclear translocation, primary screen, dynein cargo transport inhibitor project, imaging, high-content, 3617.4 mouse cells (AID 1381)
# testConditions: measured here: cytoplasmic GR-EGFP intensity, at 20 µM, stronger effect = higher value, stimulated with dexamethasone, 1 µM
The campaign covered roughly 220,000 compounds. About 1,000 (0.45%) were called active. The full list was thinned out, with actives kept by preference.

[
  {
    "lineNotation": "O=C1C=CC(=O)N1c1ccc(N2CCCCC2)cc1",
    "z-score": 2.18
  },
  {
    "lineNotation": "O=c1[nH][nH]c(=O)c2cc(N3CCCC3)ccc12",
    "z-score": -0.256
  },
  {
    "lineNotation": "COc1ccc(C(=O)NCC(=O)N/N=C/c2ccc([N+](=O)[O-])s2)cc1OC",
    "z-score": -0.211
  },
  {
    "lineNotation": "O=C(/C=C/Sc1ncn[nH]1)c1ccc(Cl)cc1",
    "z-score": 1.02
  },
  {
    "lineNotation": "Cc1ccccc1C(=O)Nc1ccc(N2CCCCCC2)cc1",
    "z-score": 0.105
  },
  {
    "lineNotation": "C=CCn1cc(C(=O)NCc2ccc(Cl)cc2)c(=O)c2cc(S(=O)(=O)N(CC)CC)ccc21",
    "z-score": -0.191
  }
]

The origin of these recorded values is PubChem BioAssay AID1381.
